# targetOrTestSystem: LOXL1 (Homo sapiens (Human))
# Sequence (Q08397 96-574, species assumed): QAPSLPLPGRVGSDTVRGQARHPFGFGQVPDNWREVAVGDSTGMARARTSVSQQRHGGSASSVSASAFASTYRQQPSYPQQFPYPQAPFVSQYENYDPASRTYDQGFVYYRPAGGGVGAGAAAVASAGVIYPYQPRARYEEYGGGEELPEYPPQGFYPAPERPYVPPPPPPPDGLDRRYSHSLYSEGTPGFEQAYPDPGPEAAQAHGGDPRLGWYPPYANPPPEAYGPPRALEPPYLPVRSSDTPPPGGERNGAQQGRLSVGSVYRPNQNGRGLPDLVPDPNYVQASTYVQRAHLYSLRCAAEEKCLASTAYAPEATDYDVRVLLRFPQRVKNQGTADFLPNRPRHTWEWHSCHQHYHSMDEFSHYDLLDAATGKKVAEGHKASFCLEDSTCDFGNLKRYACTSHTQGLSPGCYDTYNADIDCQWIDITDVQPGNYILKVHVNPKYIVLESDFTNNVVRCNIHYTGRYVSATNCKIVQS
# protocolDetails: Jump dilution experiment, sustained inhibition of LOXL1;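 also: 30× IC50 used only where needed so inhibitor exceeds enzyme concentration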
# Type: biochemical
# setupConditions: jump dilution after 40 min at 37 °C with 10× or 30× IC50; vs non-inhibited controls
Structures can show the parent of a compound that is named as a salt.
endpointName: LOXL1 - Recovery of activity. (%)

- molecule: "NC/C=C(\\F)CS(=O)(=O)c1ccccc1 [Compound 1, hydrochloride]"
  endpointName: "LOXL1 - Recovery of activity. (%)"
  number: 2.4
- molecule: "CC(C)c1ncccc1S(=O)(=O)C/C(F)=C/CN [Compound 45, dihydrochloride]"
  endpointName: "LOXL1 - Recovery of activity. (%)"
  number: 6.6
- molecule: "CN(C)S(=O)(=O)c1ccc(Oc2ccccc2S(=O)(=O)C/C(F)=C/CN)cc1 [Compound 6, hydrochloride]"
  endpointName: "LOXL1 - Recovery of activity. (%)"
  number: 2.5
- molecule: "NC/C=C(\\F)CS(=O)(=O)c1cccc2cccnc12 [Compound 33, dihydrochloride]"
  endpointName: "LOXL1 - Recovery of activity. (%)"
  number: 4.5
- molecule: "Cc1ccc(S(=O)(=O)C/C(F)=C/CN)cn1 [Compound 46, dihydrochloride]"
  endpointName: "LOXL1 - Recovery of activity. (%)"
  number: 1.0
- molecule: "NC/C=C(\\F)CS(=O)(=O)c1ccncc1 [Compound 29, dihydrochloride]"
  endpointName: "LOXL1 - Recovery of activity. (%)"
  number: 8.6
- molecule: "CC(C)N(C(C)C)S(=O)(=O)c1ccc(NC(=O)c2ccccc2S(=O)(=O)C/C(F)=C/CN)cc1 [Compound 15, hydrochloride]"
  endpointName: "LOXL1 - Recovery of activity. (%)"
  number: 26.1
- molecule: "CN(C)S(=O)(=O)c1ccc(COc2ccccc2S(=O)(=O)C/C(F)=C/CN)cc1 [Compound 5, hydrochloride]"
  endpointName: "LOXL1 - Recovery of activity. (%)"
  number: 3.6

---

Reported concentration at 8 h by item:
# protocolDetails: In vivo pharmacokinetics, plasma concentration after p.o. dosing
# Parameters: species or system Wistar rats
# setupConditions: male, Wistar, plasma, po; rat, 10 mg/kg p.o., 8.00 hours
Structures can show the parent of a compound that is named as a salt.
endpointName: concentration at 8 h

- compound: "NC/C=C(\\F)CS(=O)(=O)c1cccc2cccnc12 [Compound 33, dihydrochloride]"
  endpointName: "concentration at 8 h"
  result: "8.4 ng/mL"
- compound: "NC/C=C(\\F)CS(=O)(=O)c1ccccc1 [Compound 1, hydrochloride]"
  endpointName: "concentration at 8 h"
  result: "6.4 ng/mL"

---

# protocolDetails: In vivo pharmacokinetics, plasma concentration after p.o. dosing
# Parameters: species or system Wistar rats
# setupConditions: male, Wistar, plasma, po; rat, 30 mg/kg p.o., 1.00 hours
# Description: Test compounds (10 mg/kg and 30 mg/kg in PBS, p.o. n=3) were administered to 7-9 weeks old male Wistar rats. Test compound blood samples were collected at time points from 0.25 h-8.00 h (Compound 1); 0.5 h-8.00 h (Compound 33) post administration, from tail vein. […] For dilution samples: 10 μL sample was added to 90 μL blank rat plasma. […] Determined, mean plasma concentrations for Compounds 1 and 33 are shown in Table 5 and Table 6 respectively.
Structures can show the parent of a compound that is named as a salt.
endpointName: concentration at 1 h (ng/mL)

- compound: "NC/C=C(\\F)CS(=O)(=O)c1ccccc1 [Compound 1, hydrochloride]"
  number: 1200
- compound: "NC/C=C(\\F)CS(=O)(=O)c1cccc2cccnc12 [Compound 33, dihydrochloride]"
  number: 3010
